# ASSAY METHOD TEXT: Toxicokinetics of bivalirudin in satellite animals of the rat study (plasma concentrations)
# CONDITION: both sexes, Sprague-Dawley, in vivo, iv, 24 hours after termination of dosing, 7 out of 23 samples, all others below 50 ng/mL, read-out: plasma bivalirudin concentration at the 24-hour timepoint
# Protocol: The infusion rate was 2.5 mL/kg/h for all groups. A separate set of satellite animals (6/sex/group) were administered the same set of materials and used for evaluating the toxicokinetics (TK) of bivalirudin at 5 minutes and 24 hours after termination of dosing (3 animals/sex/group/timepoint). See Table 16b for group allocation. All animals were sacrificed on Day 16, one day following the end of the 14-day infusion. […]

SAMPLE SMILES | level at 24 h
CC[C@H](C)[C@H](NC(=O)[C@H](CCC(=O)O)NC(=O)[C@H](CCC(=O)O)NC(=O)[C@H](Cc1ccccc1)NC(=O)[C@H](CC(=O)O)NC(=O)CNC(=O)[C@H](CC(N)=O)NC(=O)CNC(=O)CNC(=O)CNC(=O)CNC(=O)[C@@H]1CCCN1C(=O)[C@H](CCCNC(=N)N)NC(=O)[C@@H]1CCCN1C(=O)[C@H](N)Cc1ccccc1)C(=O)N1CCC[C@H]1C(=O)N[C@@H](CCC(=O)O)C(=O)N[C@@H](CCC(=O)O)C(=O)N[C@@H](Cc1ccc(O)cc1)C(=O)N[C@@H](CC(C)C)C(=O)O | 50.5 to 159 ng/mL
